- TESTED SYSTEM: MMP-2 (Homo sapiens, UniProt P08253)
- Construct: made in house; provided by Dr. Gregory Goldberg, Washington University
- ASSAY EXPLANATION: biochemical
- TEST SETTINGS: recombinant human MMP-2, MCA peptide substrate 4 μM, pH 7.5, room temperature; read-out: MMP-2 IC50
pIC50: −log10 of the molar value.
Quick rule: pIC50 of at least 7 means t, below that means f.

Sample answers from the record:
[
  {
    "COMPOUND": "CCc1cccc([C@@H](C)C2CCN(c3ccc(S(=O)(=O)C4(C(=O)NO)CCOCC4)cc3)CC2)c1 [Example 831]",
    "LABEL": "f"
  },
  {
    "COMPOUND": "O=C(NO)C1(S(=O)(=O)c2ccc(N3CCC(Cc4ccccc4)CC3)cc2)CCOCC1 [Example 720]",
    "LABEL": "t"
  },
  {
    "COMPOUND": "O=C(NO)C1(S(=O)(=O)c2ccc(N3CCC(OCc4ccc(F)cc4)CC3)cc2)CCOCC1 [Example 164]",
    "LABEL": "f"
  },
  {
    "COMPOUND": "O=C(NO)C1(S(=O)(=O)c2ccc(N3CCC(OCc4cccc(C(F)(F)F)c4)CC3)cc2)CCOCC1 [Example 177]",
    "LABEL": "f"
  },
  {
    "COMPOUND": "O=C(c1ccccc1)N1CCC(C(=O)NO)(S(=O)(=O)c2ccc(Oc3ccc(C(F)(F)F)cc3)cc2)CC1 [Example 92]",
    "LABEL": "t"
  }
]

Consider now this further compound.
Item O=C(NO)C1(S(=O)(=O)c2ccc(N3CCC(OCc4ccc(Cl)cc4)CC3)cc2)CCOCC1 [Example 170] with pIC50 of 7 or above?
f

----------
Below, each of the compounds is paired with its reported IC50 value.
- TESTED SYSTEM: MMP-2 (Homo sapiens)
- Construct: made in house; provided by Dr. Gregory Goldberg, Washington University
- ASSAY EXPLANATION: biochemical
- TEST SETTINGS: recombinant human MMP-2, MCA peptide substrate 4 μM, pH 7.5, room temperature; read-out: MMP-2 IC50
Give the quantity in nM, number only.

[
  {
    "STRUCTURE SMILES": "O=C(Nc1ccc(F)cc1)OC1CCN(c2ccc(S(=O)(=O)C3(C(=O)NO)CCOCC3)cc2)CC1",
    "TESTED SYSTEM": "MMP-2 (Homo sapiens)",
    "RESULT UNITS": "nM",
    "IC50": 25.1
  },
  {
    "STRUCTURE SMILES": "O=C(NO)C1(S(=O)(=O)c2ccc(N3CCC(SCc4ccc(C(F)(F)F)cc4)CC3)cc2)CCN(C2CC2)CC1",
    "TESTED SYSTEM": "MMP-2 (Homo sapiens)",
    "RESULT UNITS": "nM",
    "IC50": 8
  }
]

Write down IC50 measured for item O=C(NO)C1(S(=O)(=O)c2ccc(N3CCN(S(=O)(=O)c4ccc(C(F)(F)F)cc4)CC3)cc2)CCOCC1
34.7

----------
Entries annotated with measured pIC50
- TESTED SYSTEM: MMP-13 (Homo sapiens)
- Construct: made in house; host or cells: baculovirus / insect cells
- ASSAY EXPLANATION: biochemical
- TEST SETTINGS: recombinant human MMP-13, MCA peptide substrate 4 μM, pH 7.5, room temperature; read-out: MMP-13 IC50
Please express pIC50 as -log10 of the molar concentration.

[
  {
    "COMPOUND": "O=C(Nc1cccc(OC(F)(F)F)c1)C1CCN(c2ccc(S(=O)(=O)C3(C(=O)NO)CCOCC3)cc2)CC1 [Example 68]",
    "pIC50": 7.89
  },
  {
    "COMPOUND": "CCC(C)CCOCc1ccc(COC2CCN(c3ccc(S(=O)(=O)C4(C(=O)NO)CCOCC4)cc3)CC2)cc1 (stereo not drawn) [Example 603]",
    "pIC50": 7.80
  },
  {
    "COMPOUND": "COCCN1CCC(C(=O)NO)(S(=O)(=O)c2ccc(N3CCC(OCc4ccc(F)cc4)CC3)cc2)CC1 [Example 448]",
    "pIC50": 8.62
  },
  {
    "COMPOUND": "CN(C(=O)C1CCN(c2ccc(S(=O)(=O)C3(C(=O)NO)CCOCC3)cc2)CC1)c1ccccc1 [Example 60]",
    "pIC50": 7.86
  },
  {
    "COMPOUND": "O=C(Nc1ccccc1C(F)(F)F)N1CCC(C(=O)NO)(S(=O)(=O)c2ccc(Oc3ccc(OC(F)(F)F)cc3)cc2)CC1 [Example 364]",
    "pIC50": 9.00
  },
  {
    "COMPOUND": "O=C(NO)C1(S(=O)(=O)c2ccc(N3CCC(Nc4ccccc4O)CC3)cc2)CCOCC1 [Example 842]",
    "pIC50": 8.26
  },
  {
    "COMPOUND": "CCCC(=O)C1CCN(c2ccc(S(=O)(=O)C3(C(=O)NO)CCOCC3)cc2)CC1 [Example 799]",
    "pIC50": 7.97
  },
  {
    "COMPOUND": "O=C(NO)C1(S(=O)(=O)c2ccc(N3CCN(c4ccc(Cl)cc4)CC3)cc2)CCN(C2CC2)CC1 [Example 354]",
    "pIC50": 8.80
  },
  {
    "COMPOUND": "CC1CCCC(S(=O)(=O)C2CCN(c3ccc(S(=O)(=O)C4(C(=O)NO)CCOCC4)cc3)CC2)C1 (stereo not drawn) [Example 822]",
    "pIC50": 8.00
  },
  {
    "COMPOUND": "O=C(CNCC(F)(F)F)N1CCC(C(=O)NO)(S(=O)(=O)c2ccc(Oc3ccc(C(F)(F)F)cc3)cc2)CC1 [Example 322]",
    "pIC50": 9.52
  }
]

Write down pIC50 measured for item CC(C)c1ccc(Oc2ccc(S(=O)(=O)C3(C(=O)NO)CCSCC3)cc2)cc1 [Example 148]
8.60

Return reported pIC50. Input compound: O=C(NO)C1(S(=O)(=O)c2ccc(N3CCN(c4ccccc4F)CC3)cc2)CCOCC1 [Example 83]
8.57

State its pIC50: O=C(NO)C1(S(=O)(=O)c2ccc(Oc3ccc(C(F)(F)F)cc3)cc2)CCN(S(=O)(=O)c2ccc(C(F)(F)F)cc2)CC1 [Example 143]
7.66

// fetch pIC50 given entry COc1c(F)c(F)c(COC2CCN(c3ccc(S(=O)(=O)C4(C(=O)NO)CCOCC4)cc3)CC2)c(F)c1F [Example 561]
8.22

----------
- TESTED SYSTEM: MMP-13 (Homo sapiens, UniProt P45452)
- Construct: made in house; host or cells: baculovirus / insect cells
- ASSAY EXPLANATION: biochemical
- TEST SETTINGS: recombinant human MMP-13, MCA peptide substrate 4 μM, pH 7.5, room temperature; read-out: MMP-13 IC50
ATTRIBUTE MEASURED: pIC50
Notebook: values listed as pIC50 are -log10 of the concentration (mol/L).

# return recorded pIC50 for input COc1ccc(C(=O)C2CCN(c3ccc(S(=O)(=O)C4(C(=O)NO)CCOCC4)cc3)CC2)cc1 [Example 647]
8.22

Quickly give me recorded pIC50 for CCOC(=O)CN1CCN(c2ccc(S(=O)(=O)C3(C(=O)NO)CCOCC3)cc2)CC1
6.92

Answer with the recorded pIC50 for the molecule listed here: N#Cc1cc(F)cc(OC2CCN(c3ccc(S(=O)(=O)C4(C(=O)NO)CCOCC4)cc3)CC2)c1
7.92

----------
// reported IC50 per item
- TESTED SYSTEM: MMP-2 (Homo sapiens)
- Construct: made in house; provided by Dr. Gregory Goldberg, Washington University
- Sequence (P08253 110-660): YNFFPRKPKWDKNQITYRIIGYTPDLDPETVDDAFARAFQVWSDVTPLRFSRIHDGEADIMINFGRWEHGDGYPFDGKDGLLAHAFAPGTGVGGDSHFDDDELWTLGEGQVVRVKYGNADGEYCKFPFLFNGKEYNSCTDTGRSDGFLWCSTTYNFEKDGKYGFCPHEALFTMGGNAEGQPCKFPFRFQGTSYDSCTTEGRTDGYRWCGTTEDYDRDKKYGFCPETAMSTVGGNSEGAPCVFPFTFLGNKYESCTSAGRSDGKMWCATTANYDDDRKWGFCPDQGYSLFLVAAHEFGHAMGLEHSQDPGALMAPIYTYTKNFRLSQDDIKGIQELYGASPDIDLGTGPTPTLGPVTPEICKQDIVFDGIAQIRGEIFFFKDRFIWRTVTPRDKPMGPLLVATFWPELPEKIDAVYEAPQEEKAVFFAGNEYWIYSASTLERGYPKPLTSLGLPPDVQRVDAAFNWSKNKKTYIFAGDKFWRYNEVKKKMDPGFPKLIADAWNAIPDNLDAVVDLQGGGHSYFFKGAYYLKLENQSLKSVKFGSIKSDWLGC
- ASSAY EXPLANATION: biochemical
- TEST SETTINGS: recombinant human MMP-2, MCA peptide substrate 4 μM, pH 7.5, room temperature; read-out: MMP-2 IC50
Where a name gives a salt, the structure may show the parent alone.
API: value field is a number in nM; no unit string.

[
  {
    "COMPOUND": "O=C(NO)C1(S(=O)(=O)c2ccc(N3CC[C@@H](OCc4cccc(C(F)(F)F)c4)C3)cc2)CCOCC1 [Example 532]",
    "IC50, nM": 150
  }
]

Kindly indicate its recorded IC50. Item: Cc1ccc(N2CCC(C(=O)NO)(S(=O)(=O)c3ccc(Oc4ccc(OC(F)(F)F)cc4)cc3)CC2)cc1 [Example 229, Monohydrochloride]
0.1

Measured values drawn from patent US6750228B1 for this set.
